Entries and their measured Test C disease control rating follow.
Test system: Botrytis cinerea
Experiment: Test C: tomato Botrytis on tomato seedlings, sprayed the day before inoculation, visual disease rating
Assay type: in vivo
Settings: 40 ppm (marked *); 100 = 100% disease control, 0 = no control
Marks after values point to notes of the source that are not given here.

Reference set (5 entries):
1. Cc1nc(C)n(-c2ccc(Cl)cc2)c1-c1c(F)ccc(F)c1F; 100* %
2. COc1cc(F)c(-n2c(C)nc(C)c2-c2ccc(Cl)cc2)c(F)c1; 100* %
3. Fc1ccc(-n2c(Cl)nc(Cl)c2-c2ccc(F)cc2Cl)cc1; 99* %
4. Fc1cc(-n2c(Br)nc(Br)c2-c2c(F)ccc(F)c2F)ccc1Cl; 100* %
5. Cc1nc(Br)n(-c2c(F)cccc2F)c1-c1ccc(Cl)cc1; 99* %

Report Test C disease control rating for Fc1cccc(F)c1-n1c(-c2ccc(Cl)cc2)cnc1Cl please.
91* %

* * *

Test system: Septoria tritici
Test: Test G: wheat leaf blotch on wheat seedlings, sprayed the day before inoculation, visual disease rating
Format: in vivo
Conditions: 200 ppm; 100 = 100% disease control, 0 = no control relative to controls
Entries and their measured Test G disease control rating follow.
Return type: number; implicit unit %.

1) Cc1ncn(-c2ccc(Cl)c(F)c2)c1-c1ccc(Br)cn1 [compound 347]; 70
2) COc1ccc(F)c(-c2c(Br)nc(Br)n2-c2ccc(Cl)cc2)c1F [compound 471]; 97
3) COc1cc(F)c(-c2c(Cl)nc(Cl)n2C(C)c2ncc(Cl)cc2Cl)c(F)c1 (stereo not drawn) [compound 727]; 89
4) COc1cc(F)c(-c2c(Cl)nc(Br)n2-c2cccc(Cl)c2)c(F)c1 [compound 483]; 94

Report Test G disease control rating for COc1ccc(-c2c(Cl)nc(C)n2-c2ccc(Cl)cc2)c(F)c1 [compound 113] please.
95

Report Test G disease control rating for Cc1nc(Br)n(-c2c(F)cc(F)cc2F)c1-c1ccc(Cl)cc1 [compound 445] please.
95

Report Test G disease control rating for CN(C)c1ccc(-n2c(Br)nc(N(C)C)c2-c2c(F)cccc2F)cc1Br [compound 689] please.
0

Report Test G disease control rating for COc1ccc(F)c(-c2c(Cl)nc(C)n2-c2ccc(Br)cc2)c1F [compound 582] please.
97

Report Test G disease control rating for Fc1cc(-n2c(Cl)nc(Br)c2-c2c(F)ccc(F)c2F)ccc1Cl [compound 350] please.
91

Report Test G disease control rating for Cc1nc(Br)c(Cc2c(F)cc(F)cc2F)n1-c1ccc(Cl)cc1 [compound 532] please.
99

Report Test G disease control rating for Cc1cccc(-c2c(C)ncn2-c2ccc(Cl)c(F)c2)n1 [compound 375] please.
92

Report Test G disease control rating for COc1cc(F)c(-c2c(Cl)nc(Cl)n2-c2ccc(Cl)nc2Cl)c(F)c1 [compound 674] please.
99

Report Test G disease control rating for COc1cc(F)c(-c2c(Cl)nc(Br)n2-c2ccc(OC(F)(F)F)cc2)c(F)c1 [compound 548] please.
96

* * *

System: Puccinia recondita f. sp. tritici
Experiment: Test I: wheat leaf rust on wheat seedlings, sprayed the day before inoculation, visual disease rating
Assay type: in vivo
Conditions: 40 ppm (marked *); 100 = 100% disease control
Description: General protocol for preparing test suspensions for Tests A-J: The test compounds were first dissolved in acetone in an amount equal to 3% of the final volume and then suspended at the desired concentration (in ppm) in acetone and purified water (50/50 mix) containing 250 ppm of the surfactant Trem® 014 (polyhydric alcohol esters). […]
Marks after values point to notes of the source that are not given here.
Entries and their measured Test I disease control rating follow.

1. CN(C)c1ccc(-n2cnc(Cl)c2-c2c(F)cccc2F)cc1; 39* %
2. COc1cc(F)c(-c2c(Cl)nc(Br)n2-c2ccc(C)c(C#N)c2)c(F)c1; 86* %

What is its Test I disease control rating for Puccinia recondita f. sp. tritici? Entry: COc1cc(F)c(-c2c(Cl)nc(Br)n2-c2ccc(C)c(I)c2)c(F)c1
9* %

* * *

Test system: Septoria tritici
Assay: Test G: wheat leaf blotch on wheat seedlings, sprayed the day before inoculation, visual disease rating
Type: in vivo
Settings: 200 ppm; 100 = 100% disease control, 0 = no control relative to controls
measuredProperty: Test G disease control rating
Note to self: number, then unit, no commentary.

Reference set (5 entries):
1. COc1cc(F)c(-c2c(-c3ccc(Cl)c(F)c3)c(C)nn2C)c(F)c1; 95%
2. Cc1nc(Br)n(-c2ccc(F)cc2Cl)c1-c1ccc(Cl)cc1; 95%
3. Cc1nc(Cl)n(-c2ccc(Cl)c(F)c2)c1-c1cccnc1Cl; 95%
4. Fc1ccc(F)c(-c2c(Br)ncn2-c2ccc(Cl)cc2)c1Cl; 94%
5. COc1cc(F)c(-c2c(Cl)nc(C)n2-c2ccc(OC(F)F)cc2)c(F)c1; 97%

Report Test G disease control rating for COc1cc(F)c(-c2c(Br)ncn2-c2ccc(F)cc2)c(F)c1 please.
99%

Report Test G disease control rating for Cc1ccc(-n2c(Cl)nc(Cl)c2-c2c(F)ccc(F)c2F)cc1 please.
85%

Report Test G disease control rating for Cc1nc(Cl)c(-c2c(F)cccc2Cl)n1-c1ccc(Cl)cc1 please.
95%

Report Test G disease control rating for Cc1nc(Cl)c(Cc2c(F)cc(F)cc2F)n1-c1cc(Cl)cc(Cl)c1 please.
3%

Report Test G disease control rating for Fc1ccc(-n2c(Br)nc(Br)c2-c2ccc(Cl)c(F)c2)c(Cl)c1 please.
95%

* * *

Entries and their measured Test G disease control rating follow.
Tested on: Septoria tritici
Assay: Test G: wheat leaf blotch on wheat seedlings, sprayed the day before inoculation, visual disease rating
Assay type: in vivo
Settings: 200 ppm; 100 = 100% disease control, 0 = no control relative to controls
Return type: number; implicit unit %.

Reference set (5 entries):
1) Fc1cccc(-n2c(Br)nc(Cl)c2-c2c(F)cc(F)cc2F)c1 [compound 367]; 90
2) COc1cc(F)c(-c2c(Cl)nc(Cl)n2-c2ccc(F)cc2)c(F)c1 [compound 142]; 94
3) COc1cc(F)c(-c2c(Cl)nc(Cl)n2-c2ccc(C(F)(F)F)nc2)c(F)c1 [compound 488]; 93
4) COc1ccc(F)c(-c2c(Cl)ncn2-c2ccc(Br)cc2)c1F [compound 528]; 99
5) Fc1ccc(-n2c(Cl)nc(Br)c2-c2ccc(Cl)cc2)c(Cl)c1 [compound 324]; 93

Report Test G disease control rating for COc1cc(F)c(-c2c(Cl)nc(Cl)n2-c2ccc(C)cc2)c(F)c1 [compound 146] please.
100

Report Test G disease control rating for COc1ccc(F)c(-c2c(Cl)nc(Cl)n2-c2ccc(C)c(F)c2)c1F [compound 561] please.
100

Report Test G disease control rating for CCc1ccc(-n2c(C)nc(Cl)c2-c2c(F)ccc(OC)c2F)cc1 [compound 479] please.
94

Report Test G disease control rating for COc1cc(F)c(-c2c(C)nn(C)c2-c2ccc(Cl)c(OC)c2)c(F)c1 [compound 111] please.
100

* * *

Entries and their measured Test D disease control rating follow.
System: Alternaria solani
Assay: Test D: tomato early blight, sprayed the day before inoculation, visual disease rating
Type: in vivo
Conditions: 40 ppm (marked *); 100 = 100% disease control
Marks after values point to notes of the source that are not given here.

Reference set (2 entries):
1) Cc1ccc(-n2c(C)nc(C)c2-c2c(F)ccc(F)c2Cl)cc1 [compound 493]; 99* %
2) Cc1ccc(-n2c(Cl)nc(C)c2-c2c(F)ccc(F)c2Cl)cc1 [compound 495]; 99* %

API: the following record is the query input.
Report Test D disease control rating for Cc1nc(Cl)c(-c2c(F)cccc2F)n1-c1ccc2ncccc2c1 [compound 468] please.
99* %

* * *

System: Puccinia recondita f. sp. tritici
Experiment: Test I: wheat leaf rust on wheat seedlings, sprayed the day before inoculation, visual disease rating
Assay type: in vivo
Settings: Puccinia recondita, 168 h; 200 ppm; 100 = 100% disease control, 0 = no control relative to controls
measuredProperty: pest or weed control at 200 ppm (%)
Return type: number; implicit unit %.

Reference set (4 entries):
1) COc1cc(OC)cc(-n2cnc(C)c2-c2c(F)cc(OC)cc2F)c1 [Compound 632]; 100
2) COc1cc(F)c(-c2c(Cl)nc(CO)n2-c2ccc(F)cc2)c(F)c1 [Compound 298]; 98
3) N#Cc1ccc(F)c(-c2c(Cl)nc(Br)n2-c2ccc(Cl)cc2)c1F [Compound 419]; 97
4) COC(=O)Cc1nc(Br)c(-c2c(F)cccc2F)n1-c1ccc(Cl)cc1 [Compound 544]; 91

What is its pest or weed control at 200 ppm for Puccinia recondita f. sp. tritici? Entry: C#Cc1nc(Cl)c(-c2c(F)cccc2F)n1-c1cccc(F)c1 [Compound 47]
54

What is its pest or weed control at 200 ppm for Puccinia recondita f. sp. tritici? Entry: COc1ccc(F)c(-c2c(Br)ncn2-c2ccc(F)cc2)c1F [Compound 450]
100

What is its pest or weed control at 200 ppm for Puccinia recondita f. sp. tritici? Entry: CNC(=O)Cc1nc(Br)c(-c2c(F)cccc2F)n1-c1ccc(Cl)cc1 [Compound 571]
90
